Data origin, for the record: patent US9527869B2

- SYSTEM_TESTED: UniProtKB P42338
- TEST_METHOD_NOTES: In vitro determination of the PI3K enzyme inhibitory activity in the cell free assay (ADP-Glo Kinase Assay), PI3Kβ
- DETAILS: ATP 100 μM, read-out: PI3K beta inhibition
For each of the compounds below, state its IC50.

Below are worked cases with known answers.
> print(dat)
                                   compound         result
1  CC(c1cc2ccccn2c1-c1ccn(CCN(C)C)c(=O)c1)n1nc(-c2cc(O)cc(F)c2)c2c(N)ncnc21 (stereo not shown) [Example 133]  10 to 1000 nM
2  CC(Nc1ncnc(N)c1C#N)c1cc2ccccn2c1-c1cccnc1 (stereo not shown)  10 to 1000 nM
3  CC(c1cc2ccccn2c1-c1ccccn1)n1nc(-c2cccc(S(N)(=O)=O)c2)c2c(N)ncnc21 (stereo not shown)      > 1000 nM

Shift focus to the following entry.
Asked: Look up IC50: CC(c1cc2ccccn2c1-c1ccc(=O)n(CCN2CCN(C)CC2)n1)n1nc(-c2cc(O)cc(F)c2)c2c(N)ncnc21 (stereo not shown)
Given back: 10 to 1000 nM

----------
- SYSTEM_TESTED: PI3Kα (Homo sapiens)
- Sequence (P42336 whole entry): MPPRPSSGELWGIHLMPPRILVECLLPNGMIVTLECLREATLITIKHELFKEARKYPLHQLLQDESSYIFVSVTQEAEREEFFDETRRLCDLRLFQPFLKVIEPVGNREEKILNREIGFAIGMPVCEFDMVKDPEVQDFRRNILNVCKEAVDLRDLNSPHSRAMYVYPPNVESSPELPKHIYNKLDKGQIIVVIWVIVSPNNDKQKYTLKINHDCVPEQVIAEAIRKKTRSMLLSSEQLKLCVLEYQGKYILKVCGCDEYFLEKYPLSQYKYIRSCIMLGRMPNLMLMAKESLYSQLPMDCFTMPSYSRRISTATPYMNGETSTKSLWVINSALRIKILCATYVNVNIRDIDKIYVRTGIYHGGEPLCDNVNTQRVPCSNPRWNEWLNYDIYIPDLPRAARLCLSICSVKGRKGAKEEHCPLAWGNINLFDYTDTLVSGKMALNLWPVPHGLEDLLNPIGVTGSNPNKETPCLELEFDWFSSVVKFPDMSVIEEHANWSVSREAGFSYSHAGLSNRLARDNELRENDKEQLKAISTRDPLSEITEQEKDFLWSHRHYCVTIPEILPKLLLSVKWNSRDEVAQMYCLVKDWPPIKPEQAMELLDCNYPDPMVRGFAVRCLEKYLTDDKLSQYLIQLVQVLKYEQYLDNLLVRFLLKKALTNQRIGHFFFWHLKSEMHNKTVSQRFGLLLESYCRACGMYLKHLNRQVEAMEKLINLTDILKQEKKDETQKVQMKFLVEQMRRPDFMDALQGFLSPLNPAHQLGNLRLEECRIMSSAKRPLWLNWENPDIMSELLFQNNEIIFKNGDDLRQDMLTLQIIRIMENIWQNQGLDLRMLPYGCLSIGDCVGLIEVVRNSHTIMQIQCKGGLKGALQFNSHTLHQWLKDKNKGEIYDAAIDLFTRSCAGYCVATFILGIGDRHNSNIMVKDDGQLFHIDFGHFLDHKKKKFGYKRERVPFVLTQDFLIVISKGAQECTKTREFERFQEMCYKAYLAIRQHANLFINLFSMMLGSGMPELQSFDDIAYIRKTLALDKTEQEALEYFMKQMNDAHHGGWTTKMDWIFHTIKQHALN
- Sequence (P27986 whole entry partner): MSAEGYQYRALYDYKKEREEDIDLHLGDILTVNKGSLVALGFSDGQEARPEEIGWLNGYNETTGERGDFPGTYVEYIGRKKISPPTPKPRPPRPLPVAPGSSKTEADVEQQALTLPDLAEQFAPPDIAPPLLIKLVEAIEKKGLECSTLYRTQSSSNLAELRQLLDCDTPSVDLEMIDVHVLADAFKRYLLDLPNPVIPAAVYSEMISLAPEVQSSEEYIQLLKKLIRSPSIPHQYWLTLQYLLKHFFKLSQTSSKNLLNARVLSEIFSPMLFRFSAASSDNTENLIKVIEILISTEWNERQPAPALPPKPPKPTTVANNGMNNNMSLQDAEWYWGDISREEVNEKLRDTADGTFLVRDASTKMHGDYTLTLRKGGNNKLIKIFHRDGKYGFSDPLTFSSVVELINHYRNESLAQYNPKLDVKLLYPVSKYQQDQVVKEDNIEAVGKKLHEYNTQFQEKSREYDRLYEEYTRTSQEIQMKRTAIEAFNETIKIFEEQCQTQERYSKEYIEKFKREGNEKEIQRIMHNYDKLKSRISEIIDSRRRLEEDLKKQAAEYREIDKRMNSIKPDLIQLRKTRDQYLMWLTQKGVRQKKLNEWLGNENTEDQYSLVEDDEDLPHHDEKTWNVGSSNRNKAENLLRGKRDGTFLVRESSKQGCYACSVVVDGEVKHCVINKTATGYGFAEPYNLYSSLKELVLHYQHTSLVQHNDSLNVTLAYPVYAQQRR
- TEST_METHOD_NOTES: In vitro determination of the PI3K enzyme inhibitory activity in the cell free assay (ADP-Glo Kinase Assay), PI3Kα
- DETAILS: ATP 50 μM, read-out: PI3K alpha inhibition
pIC50: −log10 of the molar value.
READOUT_TYPE: pIC50

COMPOUND	SYSTEM_TESTED	RESULT
Cc1cc(-c2c(C(C)n3nc(-c4cncc(O)c4)c4c(N)ncnc43)cc3ccccn23)ccn1 (stereo not drawn) [Example 107]	PI3Kα (Homo sapiens)	< 6.00

Need pIC50 for each of these compounds.
1. CC(c1c(C(F)(F)F)c2ccccn2c1-c1ccccn1)n1nc(-c2cc(O)cc(F)c2)c2c(N)ncnc21 (stereo not drawn) [Example 124]
2. C[C@@H](c1cc2ccccn2c1-c1ccccn1)n1nc(-c2cc(O)cc(F)c2)c2c(N)ncnc21 (single isomer, unassigned) [Example 80]
3. CC(c1cc2ccccn2c1-c1ccccn1)n1nc(-c2cc(O)cc(C(F)(F)F)c2)c2c(N)ncnc21 (stereo not drawn) [Example 65]
4. N#Cc1c(N)ncnc1NCc1cn2ccccc2c1-c1cccc(F)c1 [Example 28]
5. CC(c1cc2ccccn2c1-c1ccccn1)n1nc(-c2ccc(F)c(O)c2)c2c(N)ncnc21 (stereo not drawn) [Example 71]
6. CC(c1cc2ccccn2c1-c1ccccn1)n1nc(-c2cc(O)cc(F)c2)c2c(N)ncnc21 (racemic) [Example 79]
7. CC(c1cc2ccccn2c1-c1cscn1)n1nc(-c2cc(O)cc(F)c2)c2c(N)ncnc21 (stereo not drawn) [Example 129]

Given back:
1: < 6.00; 2: 6.00 to 8.00; 3: < 6.00; 4: < 6.00; 5: < 6.00; 6: 6.00 to 8.00; 7: 6.00 to 8.00

----------
- SYSTEM_TESTED: PI3Kβ (Homo sapiens)
- Construct: purchased Millipore Ltd (Billerica, Mass.)
- Sequence (P42338 whole entry, one chain of several): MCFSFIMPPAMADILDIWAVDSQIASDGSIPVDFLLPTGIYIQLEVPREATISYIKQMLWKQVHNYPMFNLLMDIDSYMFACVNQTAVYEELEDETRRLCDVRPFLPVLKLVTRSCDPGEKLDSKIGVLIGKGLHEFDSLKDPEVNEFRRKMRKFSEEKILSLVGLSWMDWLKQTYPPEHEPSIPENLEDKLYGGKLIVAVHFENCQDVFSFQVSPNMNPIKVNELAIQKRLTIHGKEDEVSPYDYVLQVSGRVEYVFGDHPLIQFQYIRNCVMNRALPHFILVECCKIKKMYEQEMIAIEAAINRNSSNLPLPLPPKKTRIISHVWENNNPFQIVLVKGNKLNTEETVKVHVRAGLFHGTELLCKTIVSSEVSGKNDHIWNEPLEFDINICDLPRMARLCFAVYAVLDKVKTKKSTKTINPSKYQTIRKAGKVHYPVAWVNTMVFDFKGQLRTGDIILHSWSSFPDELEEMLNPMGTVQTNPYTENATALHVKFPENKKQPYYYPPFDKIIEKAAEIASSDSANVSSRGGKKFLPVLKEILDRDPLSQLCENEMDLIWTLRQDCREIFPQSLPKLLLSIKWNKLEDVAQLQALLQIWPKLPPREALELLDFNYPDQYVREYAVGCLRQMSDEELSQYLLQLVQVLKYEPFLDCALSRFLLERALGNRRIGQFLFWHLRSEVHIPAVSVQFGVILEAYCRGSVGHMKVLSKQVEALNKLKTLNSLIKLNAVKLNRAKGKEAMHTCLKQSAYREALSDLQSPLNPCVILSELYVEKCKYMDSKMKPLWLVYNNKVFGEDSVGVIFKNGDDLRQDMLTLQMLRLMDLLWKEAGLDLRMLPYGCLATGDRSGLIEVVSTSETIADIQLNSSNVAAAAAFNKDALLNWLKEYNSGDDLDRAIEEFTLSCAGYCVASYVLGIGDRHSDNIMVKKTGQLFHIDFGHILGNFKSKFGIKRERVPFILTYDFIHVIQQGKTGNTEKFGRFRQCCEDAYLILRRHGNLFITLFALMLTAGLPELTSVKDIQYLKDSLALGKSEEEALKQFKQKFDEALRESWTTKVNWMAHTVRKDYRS
- TEST_METHOD_NOTES: In vitro determination of the PI3K enzyme inhibitory activity in the cell free assay (ADP-Glo Kinase Assay), PI3Kβ
- Type: biochemical
- DETAILS: ATP 100 μM, read-out: PI3K beta inhibition
For each of the compounds below, state its IC50.

Below are worked cases with known answers.
> print(dat)
                                   compound        result
1  CC(Nc1ncnc(N)c1C#N)c1cc2ccccn2c1-c1cnccn1 (stereo not shown) [Example 35]  0.01 to 1 µM
2  CC(c1cc2ccccn2c1-c1ccc(CN(CCO)CCO)cn1)n1nc(-c2cc(O)cc(F)c2)c2c(N)ncnc21 (stereo not shown) [Example 117]  0.01 to 1 µM
3  c1ccn2cc(CNc3ncnc4[nH]cnc34)cc2c1 [Example 21]  0.01 to 1 µM
4  CC(c1cc2ccccn2c1-c1ccn(CCN(C)C)c(=O)c1)n1nc(-c2cc(O)cc(F)c2)c2c(N)ncnc21 (single isomer, unassigned) [Example 133b]  0.01 to 1 µM
5  Nc1ncnc2c1ncn2Cc1cn2ccccc2c1-c1ccccc1 [Example 10]        > 1 µM

Need IC50 for each of these compounds.
1. CC(Nc1ncnc(N)c1C#N)c1cc2ccccn2c1-c1ccncc1 (stereo not shown) [Example 36]
2. CC(c1cc2ccccn2c1CN1C[C@H]2CN(C)C[C@H]2C1)n1nc(-c2cc(O)cc(F)c2)c2c(N)ncnc21 (stereo partly shown) [Example 145]
3. CC(Nc1ncnc(N)c1C#CCO)c1cc2ccccn2c1-c1ccccn1 (stereo not shown) [Example 59]
4. CC(c1cc2ccccn2c1-c1ccccn1)n1nc(-c2cc(F)cc(-c3nnn[nH]3)c2)c2c(N)ncnc21 (stereo not shown) [Example 78]
5. Nc1ncnc2c1ncn2Cc1cc2ccccn2c1-c1ccccc1F [Example 6]
6. Cc1c(C(C)n2nc(-c3cc(O)cc(F)c3)c3c(N)ncnc32)c(-c2ccccn2)n2ccccc12 (stereo not shown) [Example 89]
7. Nc1ncnc2c1ncn2Cc1cc2ccccn2c1 [Example 9]
8. CC(c1cc2cccnn2c1-c1ccccn1)n1nc(-c2cc(O)cc(F)c2)c2c(N)ncnc21 (stereo not shown) [Example 96]

Given back:
["0.01 to 1 µM", "0.01 to 1 µM", "> 1 µM", "> 1 µM", "> 1 µM", "0.01 to 1 µM", "> 1 µM", "0.01 to 1 µM"]

Need IC50 for each of these compounds.
1. C[C@H](c1c(C#N)c2ccccn2c1-c1cccc(CN(C)C)c1)n1nc(-c2cc(O)cc(F)c2)c2c(N)ncnc21 (single isomer, unassigned) [Example 127b]
2. N#Cc1c(N)ncnc1NCc1cc2ccccn2c1-c1ccccc1 [Example 22]
3. CC(c1cc2cccnn2c1-c1cccc(CN(C)C)c1)n1nc(-c2cc(O)cc(F)c2)c2c(N)ncnc21 (stereo not shown) [Example 128]

Given back:
["> 1 µM", "> 1 µM", "0.01 to 1 µM"]

----------
For each of the compounds below, state its pIC50.
- SYSTEM_TESTED: PI3Kγ (Homo sapiens, UniProt P48736)
- Sequence (P48736 whole entry): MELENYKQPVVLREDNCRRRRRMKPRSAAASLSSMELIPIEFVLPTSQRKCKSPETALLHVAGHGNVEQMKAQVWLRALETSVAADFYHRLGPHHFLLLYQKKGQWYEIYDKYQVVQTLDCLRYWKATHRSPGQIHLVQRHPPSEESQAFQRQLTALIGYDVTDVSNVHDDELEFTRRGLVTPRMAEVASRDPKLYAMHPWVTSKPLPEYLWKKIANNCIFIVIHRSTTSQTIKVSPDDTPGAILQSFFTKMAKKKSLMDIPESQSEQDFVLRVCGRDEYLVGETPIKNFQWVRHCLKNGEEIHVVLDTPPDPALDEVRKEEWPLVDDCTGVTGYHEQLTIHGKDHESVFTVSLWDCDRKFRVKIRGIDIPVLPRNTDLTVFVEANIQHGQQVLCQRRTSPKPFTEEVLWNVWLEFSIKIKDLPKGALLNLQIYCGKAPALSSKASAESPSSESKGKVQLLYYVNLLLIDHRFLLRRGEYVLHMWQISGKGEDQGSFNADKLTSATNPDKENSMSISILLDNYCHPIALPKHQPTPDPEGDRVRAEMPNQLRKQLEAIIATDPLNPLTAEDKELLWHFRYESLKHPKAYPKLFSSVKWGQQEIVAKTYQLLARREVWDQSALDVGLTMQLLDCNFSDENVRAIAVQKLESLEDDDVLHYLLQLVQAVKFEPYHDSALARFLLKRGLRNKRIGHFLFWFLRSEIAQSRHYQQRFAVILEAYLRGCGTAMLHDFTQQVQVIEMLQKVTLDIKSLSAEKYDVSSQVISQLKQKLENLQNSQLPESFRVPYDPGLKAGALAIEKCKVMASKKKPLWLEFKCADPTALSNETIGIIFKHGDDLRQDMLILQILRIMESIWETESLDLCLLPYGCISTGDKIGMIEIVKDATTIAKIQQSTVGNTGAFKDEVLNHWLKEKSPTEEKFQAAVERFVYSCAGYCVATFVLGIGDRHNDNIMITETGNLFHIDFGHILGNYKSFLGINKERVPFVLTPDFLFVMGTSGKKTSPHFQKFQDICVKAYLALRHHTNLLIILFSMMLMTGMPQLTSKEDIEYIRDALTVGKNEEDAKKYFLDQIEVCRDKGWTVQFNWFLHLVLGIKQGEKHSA
- TEST_METHOD_NOTES: In vitro determination of the PI3K enzyme inhibitory activity in the cell free assay (ADP-Glo Kinase Assay), PI3Kγ
- DETAILS: ATP 30 μM, read-out: PI3K gamma inhibition
pIC50: −log10 of the molar value.

> print(dat)
                                   compound  readout.type        result
1  CC(c1cc2ccccn2c1CN1C[C@H]2CN(C)C[C@H]2C1)n1nc(-c2cc(O)cc(F)c2)c2c(N)ncnc21 (stereo partly shown)         pIC50  6.00 to 8.00
2  CC(c1cc2ccccn2c1-c1ccccn1)n1nc(-c2cccc(O)c2)c2c(N)ncnc21 (stereo not shown)         pIC50  6.00 to 8.00
3  CC(c1c(C(F)(F)F)c2ccccn2c1-c1ccccn1)n1nc(-c2cc(O)cc(F)c2)c2c(N)ncnc21 (stereo not shown)         pIC50        < 6.00

Need pIC50 for each of these compounds.
1. CC(c1cc2cc(Cl)ccn2c1-c1ccccn1)n1nc(-c2cc(O)cc(F)c2)c2c(N)ncnc21 (stereo not shown)
2. CC(c1cc2ccccn2c1-c1ccc(=O)n(CCN2CCN(C)CC2)n1)n1nc(-c2cc(O)cc(F)c2)c2c(N)ncnc21 (stereo not shown)
3. CC(c1cc2ccccn2c1-c1ccc(OCCN2CCOCC2)cn1)n1nc(-c2cc(O)cc(F)c2)c2c(N)ncnc21 (stereo not shown)

Given back:
1. 6.00 to 8.00
2. < 6.00
3. < 6.00

Asked: Please tell me: pIC50 of CC(c1cc2ccccn2c1CN1CCC2(CCCN(C)C2)CC1)n1nc(-c2cc(O)cc(F)c2)c2c(N)ncnc21 (stereo not shown) , system PI3Kγ (Homo sapiens, UniProt P48736)?
Given back: 6.00 to 8.00

----------
- SYSTEM_TESTED: PI3Kδ (Homo sapiens)
- Construct: purchased Millipore Ltd (Billerica, Mass.)
- Sequence (O00329 whole entry, one chain of several): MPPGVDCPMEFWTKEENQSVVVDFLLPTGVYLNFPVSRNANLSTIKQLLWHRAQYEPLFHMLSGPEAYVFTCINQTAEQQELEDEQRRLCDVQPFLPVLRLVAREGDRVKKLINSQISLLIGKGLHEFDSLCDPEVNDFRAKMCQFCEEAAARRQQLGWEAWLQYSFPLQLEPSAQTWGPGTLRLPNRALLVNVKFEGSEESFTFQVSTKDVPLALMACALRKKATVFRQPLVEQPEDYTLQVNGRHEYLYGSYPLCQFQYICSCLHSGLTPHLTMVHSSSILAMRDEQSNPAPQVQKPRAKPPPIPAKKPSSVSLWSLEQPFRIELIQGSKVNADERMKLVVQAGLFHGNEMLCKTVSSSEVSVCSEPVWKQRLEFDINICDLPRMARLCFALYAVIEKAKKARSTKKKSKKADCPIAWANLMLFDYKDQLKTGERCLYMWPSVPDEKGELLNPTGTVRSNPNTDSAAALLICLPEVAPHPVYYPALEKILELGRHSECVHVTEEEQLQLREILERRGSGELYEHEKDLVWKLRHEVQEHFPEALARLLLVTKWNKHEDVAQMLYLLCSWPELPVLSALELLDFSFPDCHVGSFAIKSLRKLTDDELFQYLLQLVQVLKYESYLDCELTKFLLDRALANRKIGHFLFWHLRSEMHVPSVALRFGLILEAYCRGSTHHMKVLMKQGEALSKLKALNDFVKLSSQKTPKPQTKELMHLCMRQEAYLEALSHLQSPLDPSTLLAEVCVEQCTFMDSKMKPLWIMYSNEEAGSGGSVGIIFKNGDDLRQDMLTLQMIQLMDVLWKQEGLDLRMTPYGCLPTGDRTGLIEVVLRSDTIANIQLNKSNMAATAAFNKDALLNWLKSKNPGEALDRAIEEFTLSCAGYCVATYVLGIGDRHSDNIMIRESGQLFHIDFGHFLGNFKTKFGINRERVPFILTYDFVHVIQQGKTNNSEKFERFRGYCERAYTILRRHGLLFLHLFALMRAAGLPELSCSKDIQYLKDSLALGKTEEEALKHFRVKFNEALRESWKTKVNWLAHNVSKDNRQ
- TEST_METHOD_NOTES: In vitro determination of the PI3K enzyme inhibitory activity in the cell free assay (ADP-Glo Kinase Assay), PI3Kδ
- Format: biochemical
- DETAILS: ATP 80 μM, read-out: PI3K delta inhibition
For each of the molecules below, state its IC50.

Below are worked cases with known answers.
MOLECULE	READOUT_TYPE	RESULT
CC(c1cc2ccccn2c1-c1ccccn1)n1nc(-c2cnc(N)s2)c2c(N)ncnc21 (stereo not shown) [Example 103]	IC50	10 to 1000 nM
CC(Nc1ncnc(N)c1CO)c1cc2ccccn2c1-c1ccccn1 (stereo not shown) [Example 56]	IC50	> 1000 nM
N#Cc1c(N)ncnc1NCc1cc2ccccn2c1-c1cccc(F)c1 [Example 24]	IC50	10 to 1000 nM

Need IC50 for each of these molecules.
1. Cc1c(N)ncnc1NC(C)c1cc2ccccn2c1-c1ccccn1 (stereo not shown) [Example 50]
2. CC(c1cc2ccccn2c1-c1ccn(CCN2CCN(C)CC2)n1)n1nc(-c2cc(O)cc(F)c2)c2c(N)ncnc21 (stereo not shown) [Example 148]
3. Fc1ccccc1-c1c(CNc2ncnc3[nH]cnc23)cc2ccccn12 [Example 16]
4. Nc1ncnc2c1ncn2Cc1cn2ccccc2c1-c1ccccc1 [Example 10]
5. CC(c1cc2ccccn2c1-c1cccc(CN2CCN(C)CC2)n1)n1nc(-c2cc(O)cc(F)c2)c2c(N)ncnc21 (stereo not shown) [Example 115]
6. CC(c1cc2ccccn2c1-c1ccc(OCCN2CCN(C)CC2)nn1)n1nc(-c2cc(O)cc(F)c2)c2c(N)ncnc21 (stereo not shown) [Example 137]

Given back:
["10 to 1000 nM", "< 10 nM", "> 1000 nM", "> 1000 nM", "10 to 1000 nM", "< 10 nM"]
